tested on: EOL-1 (eosinophilic leukaemia, carrying the fusion FIP1L1-PDGFRA); assay: Calcein AM cytotoxicity assay; format: cell-based; conditions: Homo sapiens, EOL1; comparative example; EOL-1, 72 h; read-out: Influence of compounds on proliferation (72 h), EC50 values (μM) EOL-1
ASSAY READOUT: EC50

Which EC50 is reported for this compound? NC1CCC(Nc2nc(Nc3ccc(CN4CCOCC4)cc3)c3ncn(Cc4ccccc4)c3n2)CC1 (stereo not shown) [Benzyl derivative of compound 264, reference compound]
0.491 µM

---

molecular target: CDK2/Cyclin E (Homo sapiens, UniProt P24941); construct: made in house; host or cells: Sf9 insect cells, baculoviral infection; assay: Kinase inhibition assay with [γ-33P]ATP; type: biochemical; conditions: histone H1, 15 μM ATP; read-out: IC50 values (μM) CDK2
Threshold check on IC50: strictly below 0.6 µM is met; on or above 0.6 µM is not met.

Please review the entries below; each comes with its answer.
MOLECULE: CN1CCN(C(=O)c2ccc(Nc3nc(NCCCCN)nc4c3ncn4C3CCCC3)cc2)CC1
ANSWER LABEL: met
--
MOLECULE: NCCCCNc1nc(Nc2ccc(N3CC4(COC4)C3)nc2)c2ncn(C3CCCC3)c2n1
ANSWER LABEL: met
--
MOLECULE: CCN1CCN(C(=O)c2ccc(Nc3nc(N4CCN(C)CC4)nc4c3ncn4C3CCCC3)cn2)CC1
ANSWER LABEL: met
--
MOLECULE: NCCCCNc1nc(Nc2ccc(CN3CCOCC3)cc2)c2ncn(C3CCCC3)c2n1
ANSWER LABEL: not met

Decide: IC50 of `c1cc(N2CCOCC2)ncc1Nc1nc(N2CCOCC2)nc2c1ncn2C1CCCC1` strictly below 0.6 µM?
not met

---

tested on: MV4-11 (acute myeloid leukemia, FLT3-ITD positive); assay: Calcein AM cytotoxicity assay; assay type: cell-based; conditions: Homo sapiens; comparative example; MV4-11, 72 h; read-out: Influence of compounds on proliferation (72 h), EC50 values (μM) MV4-11
Here, each record is paired with measured EC50 data.
Give the number; µM is assumed, so skip it.

MOLECULE: NC1CCC(Nc2nc(Nc3ccc(CN4CCOCC4)cc3)c3ncn(-c4ccccc4)c3n2)CC1 (centres unmarked) [Phenyl derivative of compound 264, reference compound]
SYSTEM: MV4-11 (acute myeloid leukemia, FLT3-ITD positive)
UNIT LABEL: µM
DATA VALUE: 0.648

Which EC50 is reported for this molecule? NC1CCC(Nc2nc(Nc3ccc(CN4CCOCC4)cc3)c3ncn(Cc4ccccc4)c3n2)CC1 (centres unmarked) [Benzyl derivative of compound 264, reference compound]
0.393

---

Here, each record is paired with measured IC50 data.
Biological target: CDK5/p35 (Homo sapiens)
Construct: purchased ProQinase GmbH
Sequence (Q00535 whole entry): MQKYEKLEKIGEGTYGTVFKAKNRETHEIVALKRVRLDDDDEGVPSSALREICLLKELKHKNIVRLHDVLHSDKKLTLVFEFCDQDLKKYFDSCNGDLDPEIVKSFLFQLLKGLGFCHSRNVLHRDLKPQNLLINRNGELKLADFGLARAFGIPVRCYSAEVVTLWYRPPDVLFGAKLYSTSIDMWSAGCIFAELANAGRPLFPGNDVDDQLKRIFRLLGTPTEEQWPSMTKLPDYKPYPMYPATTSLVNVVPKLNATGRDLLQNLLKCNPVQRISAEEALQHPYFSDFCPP
Sequence (Q15078 whole entry partner): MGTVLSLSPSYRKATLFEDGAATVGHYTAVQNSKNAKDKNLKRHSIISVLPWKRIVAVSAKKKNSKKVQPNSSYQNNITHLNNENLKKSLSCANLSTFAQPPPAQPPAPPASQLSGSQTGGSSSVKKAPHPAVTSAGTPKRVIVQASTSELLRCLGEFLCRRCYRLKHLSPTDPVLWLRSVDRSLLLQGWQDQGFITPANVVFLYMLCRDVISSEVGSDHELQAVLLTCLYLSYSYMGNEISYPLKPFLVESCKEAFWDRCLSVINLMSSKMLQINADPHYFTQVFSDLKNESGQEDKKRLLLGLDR
Assay: Kinase inhibition assay with [γ-33P]ATP
Type: biochemical
Settings: histone H1, 0.15 μM ATP
Source text: CDK1/Cyclin B and CDK2/Cyclin E kinases were produced in Sf9 insect cells via baculoviral infection and purified on a NiNTA column (Qiagen). CDK5/p35 and CDK7Cyclin H/MAT1, FLT3 WT, FLT3-ITD and FLT3 D835 were purchased from ProQinase GmbH. […]
Give the number; µM is assumed, so skip it.

# count of solved cases: 3
COMPOUND: NCCCCCCNc1nc(Nc2ccc(CN3CCOCC3)cc2)c2ncn(C3CCCC3)c2n1
ASSAY READOUT: IC50
DATA VALUE: 8.16
--
COMPOUND: CN1CCN(C(=O)c2ccc(Nc3nc(NC4CCC(N)CC4)nc4c3ncn4C3CCCC3)cc2)CC1 (stereo not shown)
ASSAY READOUT: IC50
DATA VALUE: 0.058
--
COMPOUND: NC1CCC(Nc2nc(Nc3ccc(N4CCCC4)cc3)c3ncn(C4CCCC4)c3n2)CC1 (stereo not shown)
ASSAY READOUT: IC50
DATA VALUE: 0.359

Which IC50 is reported for this compound? `NCCNc1nc(Nc2ccc(CN3CCNCC3)cc2)c2ncn(C3CCCC3)c2n1`
0.065

Next: `NCCCCCNc1nc(Nc2ccc(CN3CCOCC3)cc2)c2ncn(C3CCCC3)c2n1`
3.71

Next: NC1CCC(Nc2nc(Nc3ccc(N4CC5(COC5)C4)cc3)c3ncn(C4CCCC4)c3n2)CC1 (stereo not shown)
0.059

Next: NC1CCC(Nc2nc(Nc3ccc(CN4CCNCC4)cc3)c3ncn(C4CCCC4)c3n2)CC1 (stereo not shown)
0.065

---

target: FLT3 WT (Homo sapiens); construct: purchased ProQinase GmbH; test: Kinase inhibition assay with [γ-33P]ATP; type: biochemical; conditions: AGLT substrate, 1 μM ATP
Sequence (P36888 27-993): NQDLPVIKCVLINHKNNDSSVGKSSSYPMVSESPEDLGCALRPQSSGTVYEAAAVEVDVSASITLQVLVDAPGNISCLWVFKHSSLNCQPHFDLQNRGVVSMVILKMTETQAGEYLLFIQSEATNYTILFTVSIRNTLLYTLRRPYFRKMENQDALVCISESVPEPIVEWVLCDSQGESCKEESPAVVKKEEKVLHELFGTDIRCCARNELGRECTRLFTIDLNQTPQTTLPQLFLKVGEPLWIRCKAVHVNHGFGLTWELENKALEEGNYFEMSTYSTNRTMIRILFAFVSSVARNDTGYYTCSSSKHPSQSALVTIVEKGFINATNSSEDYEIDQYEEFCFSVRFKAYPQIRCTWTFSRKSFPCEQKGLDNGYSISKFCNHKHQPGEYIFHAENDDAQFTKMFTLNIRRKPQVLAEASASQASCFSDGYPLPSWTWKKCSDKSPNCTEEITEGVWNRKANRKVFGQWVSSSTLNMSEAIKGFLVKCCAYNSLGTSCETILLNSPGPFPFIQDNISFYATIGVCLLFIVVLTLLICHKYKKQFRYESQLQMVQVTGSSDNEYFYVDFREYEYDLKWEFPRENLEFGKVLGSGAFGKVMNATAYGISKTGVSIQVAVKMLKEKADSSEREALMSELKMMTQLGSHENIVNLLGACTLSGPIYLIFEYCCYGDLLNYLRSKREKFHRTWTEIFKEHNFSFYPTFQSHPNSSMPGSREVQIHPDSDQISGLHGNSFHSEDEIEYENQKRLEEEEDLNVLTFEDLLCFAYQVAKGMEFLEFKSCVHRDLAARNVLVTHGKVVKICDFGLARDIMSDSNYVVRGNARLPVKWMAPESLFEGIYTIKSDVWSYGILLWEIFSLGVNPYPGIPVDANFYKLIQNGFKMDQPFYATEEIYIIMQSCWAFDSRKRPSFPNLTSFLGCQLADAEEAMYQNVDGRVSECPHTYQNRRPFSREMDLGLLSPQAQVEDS
Here, each record is paired with measured log10 of IC50 data.
Response schema: value (number) is log10 of IC50 in units of µM.

# count of solved cases: 2
MOLECULE: CN(C)CCCCNc1nc(Nc2ccc(C(=O)N3CCOCC3)cc2)c2ncn(C3CCCC3)c2n1
log10 of IC50: -1.89
//
MOLECULE: NCCCCNc1nc(Nc2ccc(CN3CCOCC3)cc2)c2ncn(C3CCCC3)c2n1
log10 of IC50: -2.22

Which log10 of IC50 is reported for this molecule? CN1CCN(C(=O)c2ccc(Nc3nc(NC4CCC(N)CC4)nc4c3ncn4C3CCCC3)cc2)CC1 (centres unmarked)
-1.68

Next: NC1CCC(Nc2nc(Nc3ccc(CN4CCOCC4)cc3)c3ncn(C4CCCC4)c3n2)CC1 (centres unmarked)
-1.89

Next: `CN1CCN(C(=O)c2ccc(Nc3nc(NCCCCN)nc4c3ncn4C3CCCC3)cc2)CC1`
-1.72

Next: `NCCCCNc1nc(Nc2ccc(N3CC4(COC4)C3)nc2)c2ncn(C3CCCC3)c2n1`
-2.00

Next: NC1CCC(Nc2nc(Nc3ccc(N4CCCC4)cc3)c3ncn(C4CCCC4)c3n2)CC1 (centres unmarked)
-1.68

Next: `NCCCCCNc1nc(Nc2ccc(CN3CCOCC3)cc2)c2ncn(C3CCCC3)c2n1`
-1.60

Next: `CCN1CCN(C(=O)c2ccc(Nc3nc(N4CCN(C)CC4)nc4c3ncn4C3CCCC3)cn2)CC1`
-1.68

Next: NC1CCC(Nc2nc(Nc3ccc(N4CCOCC4)cc3)c3ncn(C4CCCC4)c3n2)CC1 (centres unmarked)
-1.64

Next: `c1cc(Nc2nc(N3CCCCC3)nc3c2ncn3C2CCCC2)ccc1CN1CCOCC1`
-1.14

Next: `NCCNc1nc(Nc2ccc(CN3CCNCC3)cc2)c2ncn(C3CCCC3)c2n1`
-1.85

Next: `CN(C)CCNc1nc(Nc2ccc(CN3CCOCC3)nc2)c2ncn(C3CCCC3)c2n1`
-1.96

Next: `CCN1CCN(c2ccc(Nc3nc(NCCCCN)nc4c3ncn4C3CCCC3)cc2)CC1`
-1.89

Next: `NCCCCNc1nc(Nc2ccc(N3CCOCC3)cc2)c2ncn(C3CCCC3)c2n1`
-1.64

Next: `CN(C)CCCCNc1nc(Nc2ccc(C(=O)N3CCN(C)CC3)nc2)c2ncn(C3CCCC3)c2n1`
-1.70

---

target: CDK2/Cyclin E (Homo sapiens, UniProt P24941); construct: made in house; host or cells: Sf9 insect cells, baculoviral infection; experiment: Kinase inhibition assay with [γ-33P]ATP; type: biochemical; conditions: histone H1, 15 μM ATP; read-out: IC50 values (μM) CDK2
ASSAY READOUT: IC50 (µM)
Give the number; µM is assumed, so skip it.

COMPOUND: OCCCNc1nc(Nc2ccc(CN3CCOCC3)cc2)c2ncn(C3CCCC3)c2n1 [Compound 275]
IC50, µM: 3.01
//
COMPOUND: CN1CC2(C1)CN(c1ccc(Nc3nc(NC4CCC(O)CC4)nc4c3ncn4C3CCCC3)cc1)C2 (centres unmarked) [Compound 7]
IC50, µM: 0.006
//
COMPOUND: NC1CCC(Nc2nc(Nc3ccc(N4CCOCC4)cc3)c3ncn(C4CCCC4)c3n2)CC1 (centres unmarked) [Compound 1]
IC50, µM: 0.017

Which IC50 is reported for this compound? CCN1CC2(C1)CN(Cc1ccc(Nc3nc(NCCCN)nc4c3ncn4C3CCCC3)cc1)C2 [Compound 20]
0.005

Next: CN1CCN(C(=O)c2ccc(Nc3nc(NC4CCC(N)CC4)nc4c3ncn4C3CCCC3)cc2)CC1 (centres unmarked) [Compound 3]
0.004

Next: CN(C)CCNc1nc(Nc2ccc(CN3CCOCC3)nc2)c2ncn(C3CCCC3)c2n1 [Compound 172]
0.016

Next: NC1CCC(Nc2nc(Nc3ccc(N4CC5(COC5)C4)cc3)c3ncn(C4CCCC4)c3n2)CC1 (centres unmarked) [Compound 272]
0.025

Next: NC1CCC(Nc2nc(Nc3ccc(N4CCCC4)cc3)c3ncn(C4CCCC4)c3n2)CC1 (centres unmarked) [Compound 263]
0.031
